Tested on: MDA-MB-435
Assay: NCI tumour cell line growth inhibition, 48 h
Calls of active or inactive are those of the source. Rule as the data show it: active = GI50 up to about 1.1 µM and inactive = higher.
A correct response names exactly one class from active, inactive

Inquiry: I'd appreciate the recorded outcome for `CC(=O)OC(C)(C)/C=C/C(=O)[C@](C)(O)[C@H]1[C@H](O)C[C@@]2(C)[C@@H]3CC=C4[C@@H](C[C@H](O)C(=O)C4(C)C)[C@]3(C)C(=O)C[C@]12C` from this test.
Reply text: active

Inquiry: I'd appreciate the recorded outcome for `Nc1nc(Cl)cc(NCC2(CO)CC(=O)C2)n1` from this test.
Reply text: inactive

Inquiry: I'd appreciate the recorded outcome for Cn1c2c(c3ccccc31)CCN1C(=O)C34CCCC3CC21S4 (stereo unspecified) from this test.
Reply text: inactive

Inquiry: I'd appreciate the recorded outcome for COc1cccc2c(=O)c3c(n(C)c12)OC(C(C)C)C3 (stereo unspecified) from this test.
Reply text: inactive

Inquiry: I'd appreciate the recorded outcome for `Cc1cn([C@@H]2C[C@H](CO)[C@@H]2O)c(=O)[nH]c1=O` from this test.
Reply text: inactive

Inquiry: I'd appreciate the recorded outcome for CCC(NC1=NCCO1)c1cccs1 (stereo unspecified) from this test.
Reply text: inactive

Inquiry: I'd appreciate the recorded outcome for COc1cc(C2SCC(=O)N2c2ccc(-n3c(-c4ccccc4)nc4ccccc4c3=O)cc2)cc(OC)c1OC (stereo unspecified) from this test.
Reply text: inactive

Inquiry: I'd appreciate the recorded outcome for `N#Cc1ccc2[nH]c3c(c2c1)CC(=O)Nc1ccccc1-3` from this test.
Reply text: inactive

Inquiry: I'd appreciate the recorded outcome for CC1=NN(c2cccc(S(=O)(=O)O)c2)C2(C1)SCC(=O)N2c1nc2ccccc2s1 (stereo unspecified) from this test.
Reply text: inactive

Inquiry: I'd appreciate the recorded outcome for `COC(=O)C1=C(C)NC(C)=C(C(=O)OC)C1c1cccc(N=O)c1` from this test.
Reply text: inactive

Inquiry: I'd appreciate the recorded outcome for CC1(C)C2CC(O)C1(C)CC2=O (stereo unspecified) from this test.
Reply text: inactive

====

Please provide measured GI50 for the entries that follow.
Test system: HCT-116
Test: NCI tumour cell line growth inhibition, 48 h
Active and inactive are the calls of the source. No stated cut-off is given here; in the data, active = GI50 up to about 1.1 µM and inactive = higher.

Inquiry: Entry CC1=NN(c2cccc(S(=O)(=O)O)c2)C2(C1)SCC(=O)N2c1nc2ccccc2s1 (configuration not stated) : reported GI50 = ?
Reply text: > 100 µM (inactive)

Inquiry: Entry OC1C=C2C3CN(Cc4cc5c(cc43)OCO5)[C@H]2C[C@@H]1O (some centres not stated) : reported GI50 = ?
Reply text: 3.3 µM (inactive)

Inquiry: Entry `C1=N\c2ccc(cc2)-c2ccc(cc2)/N=C\c2ccccc2OCc2cccc(n2)COc2ccccc2/1` : reported GI50 = ?
Reply text: 24.4 µM (inactive)

Inquiry: Entry `Cc1ccc(-c2cc(-c3ccccc3)nc(N)n2)c(O)c1` : reported GI50 = ?
Reply text: 5.48 µM (inactive)

Inquiry: Entry `O=C(O)c1ccc(/N=N/c2cc(S(=O)(=O)O)c3cccnc3c2O)cc1` : reported GI50 = ?
Reply text: > 100 µM (inactive)

Inquiry: Entry `O=C(C[n+]1ccccc1)N/N=C(\Cc1nc2ccc([N+](=O)[O-])cc2nc1O)C(=O)Nc1cc(Cl)c(Cl)cc1Cl` : reported GI50 = ?
Reply text: > 100 µM (inactive)

Inquiry: Entry `CCOC(CN(C)C(=O)OCC(Cl)(Cl)Cl)OCC` : reported GI50 = ?
Reply text: 41.5 µM (inactive)

Inquiry: Entry `CN(C)c1ccc(/C=C/c2ccnc3ccccc23)cc1` : reported GI50 = ?
Reply text: 39.8 µM (inactive)

Inquiry: Entry `COC(=O)c1sc2c(Cl)c(Cl)sc2c1Cl` : reported GI50 = ?
Reply text: > 100 µM (inactive)

Inquiry: Entry `Nc1ccc2c(c1)NCCN2` : reported GI50 = ?
Reply text: > 100 µM (inactive)

Inquiry: Entry N#Cc1c(-c2ccco2)c2c(n(C3OC(CO)C(O)C(O)C3O)c1=S)CCCC2 (configuration not stated) : reported GI50 = ?
Reply text: > 100 µM (inactive)

Inquiry: Entry CC(=O)OC1c2ccccc2CC2(OC(C)=O)c3ccccc3C12 (configuration not stated) : reported GI50 = ?
Reply text: > 100 µM (inactive)
